Biological target: NS3-NS4 protease (Hepatitis C virus genotype 1a)
Construct: Recombinant E. coli or Baculovirus full-length NS3 was diluted to 3.33 μM with assay buffer; made in house; host or cells: E. coli or baculovirus (BV) system
Sequence (P27958 1027-1657): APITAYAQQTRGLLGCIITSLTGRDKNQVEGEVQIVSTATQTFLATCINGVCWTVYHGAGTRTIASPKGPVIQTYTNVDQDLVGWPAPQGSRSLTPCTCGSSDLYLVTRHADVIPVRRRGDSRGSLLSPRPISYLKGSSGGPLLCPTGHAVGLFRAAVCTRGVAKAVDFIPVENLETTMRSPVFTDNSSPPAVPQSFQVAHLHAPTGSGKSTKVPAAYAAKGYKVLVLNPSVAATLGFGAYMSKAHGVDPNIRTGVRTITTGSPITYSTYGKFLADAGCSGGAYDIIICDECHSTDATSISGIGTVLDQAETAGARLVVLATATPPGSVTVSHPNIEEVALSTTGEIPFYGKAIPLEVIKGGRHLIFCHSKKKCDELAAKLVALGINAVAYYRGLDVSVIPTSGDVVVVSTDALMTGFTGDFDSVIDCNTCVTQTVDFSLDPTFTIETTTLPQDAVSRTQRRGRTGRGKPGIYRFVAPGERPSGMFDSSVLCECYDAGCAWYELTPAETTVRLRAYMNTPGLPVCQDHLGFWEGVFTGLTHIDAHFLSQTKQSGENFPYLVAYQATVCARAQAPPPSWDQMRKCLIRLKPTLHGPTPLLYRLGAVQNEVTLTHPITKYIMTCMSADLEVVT
Assay: NS3-NS4 protease assay / NS3 inhibition assay, Section D
Assay type: biochemical
pIC50: −log10 of the molar value.
Reported pIC50 values are given for each entry in this list.

CC(C)(C)OC(=O)N[C@H]1CCCCC/C=C\[C@@H]2C[C@@]2(C(=O)NS(=O)(=O)C2CC2)NC(=O)[C@@H]2C[C@@H](NC(=O)c3ccc(N4CCOCC4)nc3)CN2C1=O
> 7.00
COc1cccc(C(=O)N[C@@H]2C[C@H]3C(=O)N[C@]4(C(=O)NS(=O)(=O)C5CC5)C[C@H]4/C=C\CCCCC[C@H](NC(=O)OC(C)(C)C)C(=O)N3C2)c1
> 7.00
CC(C)(C)OC(=O)N[C@H]1CCCCC/C=C\[C@@H]2C[C@@]2(C(=O)NS(=O)(=O)C2CC2)NC(=O)[C@@H]2C[C@@H](NC(=O)c3ccc(S(N)(=O)=O)cc3)CN2C1=O
> 7.00

Look at this compound and give its reported pIC50. COc1ccc2oc(C(=O)N[C@@H]3C[C@H]4C(=O)N[C@]5(C(=O)NS(=O)(=O)C6CC6)C[C@H]5/C=C\CCCCC[C@H](NC(=O)OC(C)(C)C)C(=O)N4C3)cc2c1
> 7.00

Look at this compound and give its reported pIC50. CC(C)(C)OC(=O)N[C@H]1CCCCC/C=C\[C@@H]2C[C@@]2(C(=O)O)NC(=O)[C@@H]2C[C@@H](NC(=O)c3ccc4cccnc4c3)CN2C1=O
> 5.00

* * *

Molecular target: NS3-NS4A protease (Hepatitis C virus genotype 1a)
Construct: Recombinant E. coli or Baculovirus full-length NS3 was diluted to 3.33 μM with assay buffer; made in house; host or cells: E. coli or baculovirus (BV) system
Sequence (P27958 1027-1657): as above
Test: NS3-NS4A protease assay (NS3 inhibition assay, RETS1 substrate), Section B
Type: biochemical
Conditions: read-out: NS3-NS4A IC50
Reported IC50 values are given for each entry in this list.

# count of solved cases: 3
CC(C)(C)OC(=O)N[C@H]1CCCCC/C=C\[C@@H]2C[C@@]2(C(=O)NS(=O)(=O)c2ccc(C(=O)O)cc2)NC(=O)[C@@H]2C[C@@H](OC(=O)N3Cc4ccccc4C3)CN2C1=O
< 100 nM
Cc1ccc(S(=O)(=O)NC(=O)[C@@]23C[C@H]2/C=C\CCCCC[C@H](NC(=O)OC(C)(C)C)C(=O)N2C[C@H](OC(=O)N4CCc5ccccc5C4)C[C@H]2C(=O)N3)cc1
< 100 nM
O=C(N[C@H]1CCCCC/C=C\[C@@H]2C[C@@]2(C(=O)NS(=O)(=O)C2CC2)NC(=O)[C@@H]2C[C@@H](OC(=O)N3CCc4ccccc4C3)CN2C1=O)O[C@H]1CCOC1
< 100 nM

Look at this compound and give its reported IC50. CC(C)(C)OC(=O)N[C@H]1CCCCC/C=C\[C@@H]2C[C@@]2(C(=O)NS(=O)(=O)C2CC2)NC(=O)[C@@H]2C[C@@H](OC(=O)N3Cc4ccc(OCCN5CCOCC5)cc4C3)CN2C1=O
< 100 nM

Look at this compound and give its reported IC50. CC(C)(C)OC(=O)N[C@H]1CCCCC/C=C\[C@@H]2C[C@@]2(C(=O)NS(=O)(=O)C2CC2)NC(=O)[C@@H]2C[C@@H](OC(=O)N3Cc4ccc(O)cc4C3)CN2C1=O
< 100 nM

Value source: patent US7491794B2
